test system: DFO2036; assay: qHTS profiling for inhibitors of Plasmodium falciparum proliferation (AID 504749); note: nearly all actives have a fitted effect of over 60% in size; conditions: P. falciparum in erythrocytes, SYBR Green DNA, 72 h; series mostly up to 28.7 µM
Records with an inconclusive call do not appear. The source made the active and inactive calls. Calls come from the whole dose curve; as a rule, active = well fitted inhibition curve with a large enough effect; inconclusive = small, poorly fitted or top-dose-only effect; inactive = flat fitted curve, though single readings scatter.
In this exercise, the only acceptable responses are t for active, f for inactive

compound	assigned_category
C=CCn1c(=O)n(C2OC(CO)C(O)C2O)c2nc(N)[nH]c(=O)c21 (stereo not drawn)	f
CC[C@@]1(O)CC2CN(CCc3c([nH]c4ccccc34)[C@](C(=O)OC)(c3cc4c(cc3OC)N(C)C3[C@@](O)(C(=O)OC)C(OC(C)=O)[C@]5(CC)C=CCN6CC[C@@]43C65)C2)C1 (stereo partly drawn)	t
O=C(O)Cc1sc(-c2ccc(Cl)cc2)nc1-c1ccccc1	f
CC1OC(OCC2OC(Oc3c(-c4ccc(OCCO)c(OCCO)c4)oc4cc(OCCO)cc(O)c4c3=O)C(O)C(O)C2O)[C@@H](O)C(O)C1O (stereo partly drawn)	f
CCCSS/C(CCO)=C(/C)N(C=O)Cc1cnc(C)nc1N	f
CC(O)C1CCC2C3CCC4CC(O)CCC4(C)C3CCC12C (stereo not drawn)	f

Hi, do you know how CC(=O)N[C@H]1[C@H](O[C@@H]2c3ccc(c(Cl)c3)Oc3cc4cc(c3O[C@@H]3O[C@H](CO)[C@@H](O)[C@H](O)C3C)Oc3ccc(cc3Cl)C[C@H]3NC(=O)[C@@H](N)c5ccc(O)c(c5)Oc5cc(O)cc(c5)[C@H](NC3=O)C(=O)N[C@H]4C(=O)N[C@H]3C(=O)N[C@@H]2C(=O)N[C@@H](C(=O)O)c2cc(O)cc(O[C@H]4O[C@H](CO)[C@@H](O)C(O)[C@@H]4O)c2-c2cc3ccc2O)O[C@H](CO)[C@@H](O)[C@@H]1O (stereo partly drawn) came out in this test?
f

Please answer likewise for OCC1O[C@H](O[C@H]2C(O)C(O)C(O)O[C@@H]2CO)C(O)C(O)C1O (stereo partly drawn)
f
